# testTarget: T1, human FcRH5 protein fragment (soluble) (human, UniProt Q96RD9 16-851)
# T1 construct: whole entry named; also called soluble human FcRH5; Human FcRH5 (BIACORE analyte)
# T1 sequence: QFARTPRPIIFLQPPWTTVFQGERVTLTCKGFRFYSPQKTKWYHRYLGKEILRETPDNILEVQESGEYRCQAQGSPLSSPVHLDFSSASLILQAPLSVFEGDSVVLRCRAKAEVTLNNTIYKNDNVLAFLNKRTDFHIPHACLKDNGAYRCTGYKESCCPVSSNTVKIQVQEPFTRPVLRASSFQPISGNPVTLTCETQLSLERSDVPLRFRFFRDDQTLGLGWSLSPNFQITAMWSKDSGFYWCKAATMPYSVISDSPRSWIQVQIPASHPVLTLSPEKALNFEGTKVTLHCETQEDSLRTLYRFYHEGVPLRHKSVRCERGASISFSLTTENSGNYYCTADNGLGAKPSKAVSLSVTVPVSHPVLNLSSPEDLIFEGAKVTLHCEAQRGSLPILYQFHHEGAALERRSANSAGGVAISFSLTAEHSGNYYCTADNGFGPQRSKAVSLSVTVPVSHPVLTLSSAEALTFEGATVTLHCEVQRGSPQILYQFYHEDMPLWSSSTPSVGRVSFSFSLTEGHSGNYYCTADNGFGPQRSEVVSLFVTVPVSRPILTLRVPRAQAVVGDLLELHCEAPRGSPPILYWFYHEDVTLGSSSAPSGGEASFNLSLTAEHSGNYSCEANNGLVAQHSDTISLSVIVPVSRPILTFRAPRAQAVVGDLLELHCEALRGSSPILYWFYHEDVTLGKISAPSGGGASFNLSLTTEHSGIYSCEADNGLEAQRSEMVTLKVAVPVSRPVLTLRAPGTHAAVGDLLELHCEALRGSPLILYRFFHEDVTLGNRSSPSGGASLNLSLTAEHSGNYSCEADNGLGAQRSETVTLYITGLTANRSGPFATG
# methodNotes: SPR (BIACORE), IgG captured via anti-human IgG, FcRH5 protein fragment as analyte (100 and 500 nM)
Our labelling divides records by Kd into ranges: lower band: < 3 nM; central band: ≥ 3 nM and < 80 nM; upper band: ≥ 80 nM

[
  {
    "binder": "hu1G7.v1 heavy chain W52F with light chain of hu1G7.v1.7 (antibody, V domains shown, human IgG) VH: EVQLVESGPGLVKPSETLSLTCTVSGFSLTRFGVHWVRQPPGKGLEWLGVIFRGGSTDYNAAFMSRLTISKDNSKNQVSLKLSSVTAADTAVYYCSNHYYGSSDYALDNWGQGTLVTVSS VL: DIQMTQSPSSLSASVGDRVTITCKASQDVRNLVVWFQQKPGKAPKLLIYSGYYRYTGVPSRFSGSGSGTDFTLTISSLQPEDFATYYCQQHYQPPYTFGQGTKVEIK",
    "cat": "central band"
  },
  {
    "binder": "hu1G7.v1 heavy chain W52L with light chain of hu1G7.v1.5 (antibody, V domains shown, human IgG) VH: EVQLVESGPGLVKPSETLSLTCTVSGFSLTRFGVHWVRQPPGKGLEWLGVILRGGSTDYNAAFMSRLTISKDNSKNQVSLKLSSVTAADTAVYYCSNHYYGSSDYALDNWGQGTLVTVSS VL: DIQMTQSPSSLSASVGDRVTITCKASQDVSNIVVWFQQKPGKSPKLLIYSGYYRYTGVPSRFSGSGSGTDFTLTISSLQPEDFATYYCQQQFQPPYTFGQGTKVEIK",
    "cat": "upper band"
  },
  {
    "binder": "hu1G7.v1 heavy chain W52H with light chain of hu1G7.v1.3 (antibody, V domains shown, human IgG) VH: EVQLVESGPGLVKPSETLSLTCTVSGFSLTRFGVHWVRQPPGKGLEWLGVIHRGGSTDYNAAFMSRLTISKDNSKNQVSLKLSSVTAADTAVYYCSNHYYGSSDYALDNWGQGTLVTVSS VL: DIQMTQSPSSLSASVGDRVTITCKASQDVRNIVVWFQQKPGKAPKLLIYSGSYRYSGVPSRFSGSGSGTDFTLTISSLQPEDFATYYCQQQYSPPYTFGQGTKVEIK",
    "cat": "central band"
  },
  {
    "binder": "hu1G7.v1 heavy chain M64V with light chain of hu1G7.v1.7 (antibody, V domains shown, human IgG) VH: EVQLVESGPGLVKPSETLSLTCTVSGFSLTRFGVHWVRQPPGKGLEWLGVIWRGGSTDYNAAFVSRLTISKDNSKNQVSLKLSSVTAADTAVYYCSNHYYGSSDYALDNWGQGTLVTVSS VL: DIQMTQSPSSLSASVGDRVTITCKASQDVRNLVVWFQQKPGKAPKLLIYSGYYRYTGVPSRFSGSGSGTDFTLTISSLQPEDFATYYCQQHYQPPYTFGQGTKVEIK",
    "cat": "lower band"
  },
  {
    "binder": "hu1G7.v1 heavy chain W52L with light chain of hu1G7.v1 (antibody, V domains shown, human IgG) VH: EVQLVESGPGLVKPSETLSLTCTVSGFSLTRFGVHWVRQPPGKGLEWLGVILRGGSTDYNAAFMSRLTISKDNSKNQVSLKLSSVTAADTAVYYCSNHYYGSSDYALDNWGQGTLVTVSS VL: DIQMTQSPSSLSASVGDRVTITCKASQDVSNIVVWFQQKPGKSPKLLIYSASYRYTGVPSRFSGSGSGTDFTLTISSLQPEDFATYYCQQHYSSPYTFGQGTKVEIK",
    "cat": "upper band"
  },
  {
    "binder": "hu1G7.v1 heavy chain M64V with light chain of hu1G7.v1.6 (antibody, V domains shown, human IgG) VH: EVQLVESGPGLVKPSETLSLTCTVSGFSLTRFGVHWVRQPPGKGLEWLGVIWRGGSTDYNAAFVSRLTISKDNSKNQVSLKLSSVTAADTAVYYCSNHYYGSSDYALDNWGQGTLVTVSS VL: DIQMTQSPSSLSASVGDRVTITCKASQDVSNIVVWFQQKPGKAPKLLIYSGYYRYSGVPSRFSGSGSGTDFTLTISSLQPEDFATYYCQQQYQPPYTFGQGTKVEIK",
    "cat": "lower band"
  },
  {
    "binder": "hu1G7.v1 heavy chain M64F with light chain of hu1G7.v1.5 (antibody, V domains shown, human IgG) VH: EVQLVESGPGLVKPSETLSLTCTVSGFSLTRFGVHWVRQPPGKGLEWLGVIWRGGSTDYNAAFFSRLTISKDNSKNQVSLKLSSVTAADTAVYYCSNHYYGSSDYALDNWGQGTLVTVSS VL: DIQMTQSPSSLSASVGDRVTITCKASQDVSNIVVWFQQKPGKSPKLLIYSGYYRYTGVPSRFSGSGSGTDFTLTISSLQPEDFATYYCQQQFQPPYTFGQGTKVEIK",
    "cat": "lower band"
  },
  {
    "binder": "hu1G7.v1 heavy chain M64I with light chain of hu1G7.v1.4 (antibody, V domains shown, human IgG) VH: EVQLVESGPGLVKPSETLSLTCTVSGFSLTRFGVHWVRQPPGKGLEWLGVIWRGGSTDYNAAFISRLTISKDNSKNQVSLKLSSVTAADTAVYYCSNHYYGSSDYALDNWGQGTLVTVSS VL: DIQMTQSPSSLSASVGDRVTITCKASQDVRNLVVWFQQKPGKAPKLLIYSGSYRYSGVPSRFSGSGSGTDFTLTISSLQPEDFATYYCQQHYSPPYTFGQGTKVEIK",
    "cat": "lower band"
  },
  {
    "binder": "hu1G7.v1 heavy chain M64F with light chain of hu1G7.v1 (antibody, V domains shown, human IgG) VH: EVQLVESGPGLVKPSETLSLTCTVSGFSLTRFGVHWVRQPPGKGLEWLGVIWRGGSTDYNAAFFSRLTISKDNSKNQVSLKLSSVTAADTAVYYCSNHYYGSSDYALDNWGQGTLVTVSS VL: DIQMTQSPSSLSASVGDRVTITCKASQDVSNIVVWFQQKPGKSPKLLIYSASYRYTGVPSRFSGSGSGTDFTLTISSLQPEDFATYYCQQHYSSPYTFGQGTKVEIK",
    "cat": "central band"
  },
  {
    "binder": "hu1G7.v1 heavy chain W52H with light chain of hu1G7.v1.7 (antibody, V domains shown, human IgG) VH: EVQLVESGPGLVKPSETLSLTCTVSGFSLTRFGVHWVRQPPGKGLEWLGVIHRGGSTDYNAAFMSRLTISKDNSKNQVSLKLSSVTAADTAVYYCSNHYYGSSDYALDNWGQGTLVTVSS VL: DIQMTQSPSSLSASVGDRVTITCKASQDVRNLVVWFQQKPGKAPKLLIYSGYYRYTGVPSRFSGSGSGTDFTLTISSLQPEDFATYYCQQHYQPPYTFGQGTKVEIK",
    "cat": "upper band"
  }
]
